System: MDA-MB-231-pcDNA3 breast cancer cells
assay.protocol: Resazurin reduction assay, MDA-MB-231
Assay type: cell-based
conditions.used: Homo sapiens, MDA-MB-231, 72 h; read-out: IC50
Description: The cell lines used the present work, their origins and their treatments were previously reported. […] The cytotoxicity of the studied samples was performed by resazurin reduction assay as we previously described. […] After 72 h incubation and a resazurin (Sigma-Aldrich, Schnelldorf, Germany) staining, fluorescence was measured on an Infinite M2000 Pro™ plate reader (Tecan, Crailsheim, Germany) using an excitation wavelength of 544 nm and an emission wavelength of 590 nm. […]
Entries and their IC50 values follow.
Express the result in µg/mL but write the number alone.

So the reported IC50 for O=C1C[C@@H](c2ccc(O)cc2)Oc2cc(O)cc(O)c21 , on MDA-MB-231-pcDNA3 breast cancer cells, turned out to be 9.51

Consider the additional compound presented here.
Per the reported MDA-MB-231-pcDNA3 breast cancer cells data, COc1cccc2c1C(=O)c1c(O)c3c(c(O)c1C2=O)C[C@@](O)(C(=O)CO)C[C@@H]3O[C@H]1C[C@H](N)[C@H](O)[C@H](C)O1 [Doxorubucin, Doxorubicin, reference compound] has IC50 of 1.1

Cited source for all entries: paper PMC4177760
